- systemTested: PqsR (Pseudomonas aeruginosa)
- Sequence (Q9I4X0 whole entry): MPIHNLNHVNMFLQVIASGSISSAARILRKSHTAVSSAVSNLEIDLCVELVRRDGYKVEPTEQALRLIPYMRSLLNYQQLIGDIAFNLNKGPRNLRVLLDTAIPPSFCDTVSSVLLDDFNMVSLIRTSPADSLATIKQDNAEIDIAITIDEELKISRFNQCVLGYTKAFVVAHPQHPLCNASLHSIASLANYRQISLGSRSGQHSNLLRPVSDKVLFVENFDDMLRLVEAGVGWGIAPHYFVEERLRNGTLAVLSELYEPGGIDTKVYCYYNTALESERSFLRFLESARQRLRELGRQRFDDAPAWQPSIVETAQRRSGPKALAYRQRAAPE
- testName: E. coli based β-galactosidase reporter gene assay (PqsR inverse agonistic activity)
- Assay type: cell-based
- Parameters: expressed in transfected cells; host or cells: Escherichia coli DH5α
- Description: Inhibition of pqsR-dependent gene expression of test compounds was determined in an E. coli based β-galactosidase reporter gene assay.[19] […] Antagonistic effects of compounds were evaluated in the presence of/in competition to 50 nM PQS. […] Finally, 995 μL of culture was added to each well and the p-galactosidase activity was determined by ortho-nitrophenyl-p-galactoside conversion in permeabilized cells after a 2.5 h incubation period (37° C., 180 rpm). […]
pIC50: −log10 of the molar value.
Reported pIC50 values follow for various compounds
measuredQuantity: pIC50

INSERT INTO results (smilesstring, resultvalue) VALUES
  ('FC(F)(F)c1cc(NCc2cn(-c3ccc(-n4cnc5ccccc54)cc3)nn2)ccn1', '6.60 to 7.29'),
  ('CC(C)Oc1ccc(-c2ncc(CNc3cc(Cl)nc(C(F)(F)F)c3)s2)cc1', '≥ 7.30'),
  ('FC(F)(F)c1cc(SCc2cn(-c3ccc(Oc4ccccc4)cc3)nn2)ccn1', '≥ 7.30'),
  ('FC(F)(F)c1cc(NCc2cn(-c3ccc(CN4CCOCC4)cc3)nn2)ccn1', '6.00 to 6.60'),
  ('FC(F)(F)c1cc(NCc2cn(-c3ccc(-n4ccc5ccccc54)cc3)nn2)ccn1', '6.60 to 7.29'),
  ('Fc1cc2nc(CSc3ccnc(C(F)(F)F)c3)[nH]c2cc1F', '6.00 to 6.60'),
  ('FC(F)(F)Oc1ccc(-n2cc(CNc3ccnc(C(F)(F)F)c3)nn2)cc1Cl', '≥ 7.30'),
  ('FC(F)(F)c1cc(NCc2nc(-c3ccc(Oc4ccccc4)cc3)cs2)ccn1', '6.00 to 6.60');

====

- testName: Kinetic Turbidimetric Aqueous Solubility at room temperature for 5 min
- Format: physicochemical
- runParameters: PBS buffer, kinetic from dmso stock, 2% DMSO
Reported solubility at 5 min values follow for various molecules
measuredQuantity: solubility at 5 min

INSERT INTO results (molecule, resultvalue) VALUES
  ('COc1ncc(-c2ccc(CNc3ccnc(C(F)(F)F)c3)nc2)cc1Cl [Compound 101]', '> 25 µM'),
  ('CC(C)Oc1ccc(-c2ncc(CNc3ccnc(C(F)(F)F)c3)cn2)cc1 [Compound 106]', '> 25 µM'),
  ('N#Cc1cc(NCc2cn(-c3ccc(Oc4ccccc4)cc3)nn2)cc(Cl)n1 [Compound 051]', '> 50 µM'),
  ('CC(C)Oc1ccc(-c2ncc(CNc3cc(C#N)nc(C(F)(F)F)c3)s2)cc1Cl [Compound 160]', '> 10 µM'),
  ('CC(C)Oc1ncc(-c2ncc(CNc3ccnc(C(F)(F)F)c3)cn2)cc1Cl [Compound 164]', '> 25 µM'),
  ('Nc1cc(SCc2nc3cc(Cl)c(Cl)cc3[nH]2)nc(C(F)(F)F)n1 [Compound 117]', '> 50 µM'),
  ('O=C(c1ccccc1)c1ccc(-n2cc(CNc3ccnc(C(F)(F)F)c3)nn2)cc1 [Compound 004]', '> 25 µM'),
  ('COc1ccc(-c2ccc(CNc3ccnc(C(F)(F)F)c3)nc2)cc1Cl [Compound 104]', '> 10 µM'),
  ('N#Cc1cc(SCc2nc3cc(Oc4ccccc4)ccc3[nH]2)ccn1 [Compound 175]', '> 25 µM'),
  ('Fc1ccc(Oc2ccc3[nH]c(CSc4ccnc(C(F)(F)F)c4)nc3c2)cc1 [Compound 173]', '> 25 µM'),
  ('COc1ccc(-n2cc(CNc3ccnc(C(F)(F)F)c3)nn2)cc1Cl [Compound 017]', '> 50 µM'),
  ('N#Cc1cc(NCc2cn(-c3ccc(Oc4ccccc4)cc3)nn2)ccn1 [Compound 041]', '> 10 µM'),
  ('FC(F)(F)c1cc(NCc2cnc(-c3ccc(Cl)cc3)s2)ccn1 [Compound 072]', '> 25 µM'),
  ('FC(F)(F)c1cc(NCc2cn(-c3ccc(-n4ncc5ccncc54)c(Cl)c3)nn2)ccn1 [Compound 147]', '> 50 µM'),
  ('COc1ccc(-c2ncc(CNc3ccnc(C(F)(F)F)c3)s2)cc1C [Compound 074]', '> 25 µM'),
  ('FC(F)(F)c1cc(NCc2nc3ccc(Oc4ccccc4)cc3o2)ccn1 [Compound 134]', '≥ 100 µM'),
  ('FC(F)(F)c1cc(NCc2ncc(-c3ccc(Oc4ccccc4)cc3)s2)ccn1 [Compound 078]', '> 10 µM'),
  ('FC(F)(F)c1cc(NCc2csc(-c3ccc(Oc4ccccc4)cc3)n2)ccn1 [Compound 080]', '> 10 µM');
